- Tested on: B16
- assay comment: Antiproliferative activity against mouse B16 cells after 72 hrs MTT assay
- Type: functional, cell-based
- assay conditions: B16, 72 h
Hi there, I'd appreciate the recorded IC50 for every entry that follows.
Lab book: enter the figure in µM, no units written.

Query: Which IC50 value belongs to `C=C(C)[C@@H]1CC[C@]2(C(=O)OCc3ccccc3)CC[C@]3(C)[C@H](CC[C@@H]4[C@@]5(C)CCC(=O)[C@@](C)(CO)[C@@H]5CC[C@]43C)[C@@H]12` ?
Result: 14.1

Query: Input `C=C(C)[C@@H]1CC[C@]2(C(=O)OCCO)CC[C@]3(C)[C@H](CC[C@@H]4[C@@]5(C)CCC(=O)[C@@](C)(COC(C)=O)[C@@H]5CC[C@]43C)[C@@H]12`
Result: 18.1

Query: Input COc1cccc2c1C(=O)c1c(O)c3c(c(O)c1C2=O)C[C@@](O)(C(=O)CO)C[C@@H]3O[C@H]1C[C@H](N)[C@H](O)[C@H](C)O1 [DOXORUBICIN]
Result: 0.18

* * *

- assay comment: Antiproliferative activity against human Bel7402 cells after 72 hrs MTT assay
- Type: functional, cell-based
- assay conditions: Bel-7402, 72 h
Hi there, I'd appreciate the recorded pIC50 for every entry that follows.
# pIC50 = -log10(concentration in molar units)

Query: Which pIC50 value belongs to `C=C(C)[C@@H]1CC[C@]2(C(=O)Oc3ccc(C#N)cc3)CC[C@]3(C)[C@H](CC[C@@H]4[C@@]5(C)CCC(=O)[C@@](C)(COC(C)=O)[C@@H]5CC[C@]43C)[C@@H]12` ?
Result: 5.03

Query: Input `C=C(C)[C@@H]1CC[C@]2(C(=O)O)CC[C@]3(C)[C@H](CC[C@@H]4[C@@]5(C)CC/C(=N\O)[C@@](C)(CO)[C@@H]5CC[C@]43C)[C@@H]12`
Result: 4.49

Query: Input `C=C(C)[C@@H]1CC[C@]2(C(=O)OCc3ccccc3)CC[C@]3(C)[C@H](CC[C@@H]4[C@@]5(C)CCC(=O)[C@@](C)(CO)[C@@H]5CC[C@]43C)[C@@H]12`
Result: 4.70

* * *

- assay comment: Antiproliferative activity against human Bel7402 cells after 72 hrs MTT assay
- Type: functional, cell-based
- assay conditions: Bel-7402, 72 h
Hi there, I'd appreciate the recorded IC50 for every entry that follows.
Lab book: enter the figure in µM, no units written.

Query: Which IC50 value belongs to `C=C(C)[C@@H]1CC[C@]2(C(=O)OCC)CC[C@]3(C)[C@H](CC[C@@H]4[C@@]5(C)CCC(=O)[C@@](C)(CO)[C@@H]5CC[C@]43C)[C@@H]12` ?
Result: 30.9

Query: Input `C=C(C)[C@@H]1CC[C@]2(C(=O)O)CC[C@]3(C)[C@H](CC[C@@H]4[C@@]5(C)C[C@H](O)[C@H](O)[C@@](C)(CO)[C@@H]5CC[C@]43C)[C@@H]12`
Result: 56.8

Query: Input `C=C(C)[C@@H]1CC[C@]2(C(=O)O)CC[C@]3(C)[C@H](CC[C@@H]4[C@@]5(C)C[C@H](COC(C)=O)[C@H](OC(C)=O)[C@@](C)(COC(C)=O)[C@@H]5CC[C@]43C)[C@@H]12`
Result: 50.2

Query: Input `C=C(C)[C@@H]1CC[C@]2(C(=O)OCC(=O)OCC)CC[C@]3(C)[C@H](CC[C@@H]4[C@@]5(C)CC/C(=N\O)[C@@](C)(CO)[C@@H]5CC[C@]43C)[C@@H]12`
Result: 30.6

Query: Input `C=C(C)[C@@H]1CC[C@]2(C(=O)OCc3ccccc3)CC[C@]3(C)[C@H](CC[C@@H]4[C@@]5(C)C[C@H](OC(C)=O)[C@H](OC(C)=O)[C@@](C)(COC(C)=O)[C@@H]5CC[C@]43C)[C@@H]12`
Result: 34.5

Query: Input `C=C(C)[C@@H]1CC[C@]2(C(=O)NCCN)CC[C@]3(C)[C@H](CC[C@@H]4[C@@]5(C)CCC(=O)[C@@](C)(COC(C)=O)[C@@H]5CC[C@]43C)[C@@H]12`
Result: 7.22

Query: Input `C=C(C)[C@@H]1CC[C@]2(C(=O)O)CC[C@]3(C)[C@H](CC[C@@H]4[C@@]5(C)C=C(OC(C)=O)C(=O)[C@@](C)(COC(C)=O)[C@@H]5CC[C@]43C)[C@@H]12`
Result: 25.4

Query: Input `C=C(C)[C@@H]1CC[C@]2(C(=O)OCc3ccc(-c4ccccc4C#N)cc3)CC[C@]3(C)[C@H](CC[C@@H]4[C@@]5(C)CCC(=O)[C@@](C)(CO)[C@@H]5CC[C@]43C)[C@@H]12`
Result: 10.3

Query: Input `C=C(C)[C@@H]1CC[C@]2(C(=O)O)CC[C@]3(C)[C@H](CC[C@@H]4[C@@]5(C)C[C@H](CO)[C@H](O)[C@@](C)(CO)[C@@H]5CC[C@]43C)[C@@H]12`
Result: 59.1

Query: Input `C=C(C)[C@@H]1CC[C@]2(C(=O)OCc3ccccc3)CC[C@]3(C)[C@H](CC[C@@H]4[C@@]5(C)C[C@H](CO)[C@H](O)[C@@](C)(CO)[C@@H]5CC[C@]43C)[C@@H]12`
Result: 41.7

* * *

Hi there, I'd appreciate the recorded pIC50 for every entry that follows.
- assay comment: Antiproliferative activity against human Bel7402 cells after 72 hrs MTT assay
- Type: functional, cell-based
- assay conditions: Bel-7402, 72 h
# pIC50 = -log10(concentration in molar units)

Query: Which pIC50 value belongs to `C=C(C)[C@@H]1CC[C@]2(C(=O)OCC(=O)OCC)CC[C@]3(C)[C@H](CC[C@@H]4[C@@]5(C)CCC(=O)[C@@](C)(CO)[C@@H]5CC[C@]43C)[C@@H]12` ?
Result: 4.51

Query: Input `C=C(C)[C@@H]1CC[C@]2(C(=O)OCc3ccccc3)CC[C@]3(C)[C@H](CC[C@@H]4[C@@]5(C)C[C@H](O)[C@H](O)[C@@](C)(CO)[C@@H]5CC[C@]43C)[C@@H]12`
Result: 4.40

Query: Input `C=C(C)[C@@H]1CC[C@]2(C(=O)OCC)CC[C@]3(C)[C@H](CC[C@@H]4[C@@]5(C)CC/C(=N\O)[C@@](C)(CO)[C@@H]5CC[C@]43C)[C@@H]12`
Result: 4.51

Query: Input `C=C(C)[C@@H]1CC[C@]2(C(=O)OCC(=O)O)CC[C@]3(C)[C@H](CC[C@@H]4[C@@]5(C)CC/C(=N\O)[C@@](C)(CO)[C@@H]5CC[C@]43C)[C@@H]12`
Result: 4.57

Query: Input `C=CCOC(=O)[C@]12CC[C@@H](C(=C)C)[C@@H]1[C@H]1CC[C@@H]3[C@@]4(C)CC/C(=N\O)[C@@](C)(CO)[C@@H]4CC[C@@]3(C)[C@]1(C)CC2`
Result: 4.65

Query: Input `C=C(C)[C@@H]1CC[C@]2(C(=O)O)CC[C@]3(C)[C@H](CC[C@@H]4[C@@]5(C)CC[C@H](O)[C@@](C)(CO)[C@@H]5CC[C@]43C)[C@@H]12`
Result: 4.40

Query: Input `C=C(C)[C@@H]1CC[C@]2(C(=O)O[C@@H]3O[C@H](CO)[C@@H](O)[C@H](O)[C@H]3O)CC[C@]3(C)[C@H](CC[C@@H]4[C@@]5(C)CCC(=O)[C@@](C)(CO)[C@@H]5CC[C@]43C)[C@@H]12`
Result: 4.66

* * *

- Tested on: B16
- assay comment: Antiproliferative activity against mouse B16 cells after 72 hrs MTT assay
- Type: functional, cell-based
- assay conditions: B16, 72 h
Hi there, I'd appreciate the recorded pIC50 for every entry that follows.
# pIC50 = -log10(concentration in molar units)

Query: Observed pIC50 on B16 for `C=C(C)[C@@H]1CC[C@]2(C(=O)NCCN)CC[C@]3(C)[C@H](CC[C@@H]4[C@@]5(C)CCC(=O)[C@@](C)(COC(C)=O)[C@@H]5CC[C@]43C)[C@@H]12` , please.
Result: 5.25

Query: Input `C=C(C)[C@@H]1CC[C@]2(C(=O)OCc3ccccc3)CC[C@]3(C)[C@H](CC[C@@H]4[C@@]5(C)C[C@H](OC(C)=O)[C@H](OC(C)=O)[C@@](C)(COC(C)=O)[C@@H]5CC[C@]43C)[C@@H]12`
Result: 4.67

Query: Input `C=C(C)[C@@H]1CC[C@]2(C(=O)OCC(=O)OCC)CC[C@]3(C)[C@H](CC[C@@H]4[C@@]5(C)CCC(=O)[C@@](C)(CO)[C@@H]5CC[C@]43C)[C@@H]12`
Result: 4.59
